// provenance: ChEMBL document CHEMBL5576154

target: Vascular endothelial growth factor receptor 2 (Homo sapiens)
Sequence (P35968 whole entry): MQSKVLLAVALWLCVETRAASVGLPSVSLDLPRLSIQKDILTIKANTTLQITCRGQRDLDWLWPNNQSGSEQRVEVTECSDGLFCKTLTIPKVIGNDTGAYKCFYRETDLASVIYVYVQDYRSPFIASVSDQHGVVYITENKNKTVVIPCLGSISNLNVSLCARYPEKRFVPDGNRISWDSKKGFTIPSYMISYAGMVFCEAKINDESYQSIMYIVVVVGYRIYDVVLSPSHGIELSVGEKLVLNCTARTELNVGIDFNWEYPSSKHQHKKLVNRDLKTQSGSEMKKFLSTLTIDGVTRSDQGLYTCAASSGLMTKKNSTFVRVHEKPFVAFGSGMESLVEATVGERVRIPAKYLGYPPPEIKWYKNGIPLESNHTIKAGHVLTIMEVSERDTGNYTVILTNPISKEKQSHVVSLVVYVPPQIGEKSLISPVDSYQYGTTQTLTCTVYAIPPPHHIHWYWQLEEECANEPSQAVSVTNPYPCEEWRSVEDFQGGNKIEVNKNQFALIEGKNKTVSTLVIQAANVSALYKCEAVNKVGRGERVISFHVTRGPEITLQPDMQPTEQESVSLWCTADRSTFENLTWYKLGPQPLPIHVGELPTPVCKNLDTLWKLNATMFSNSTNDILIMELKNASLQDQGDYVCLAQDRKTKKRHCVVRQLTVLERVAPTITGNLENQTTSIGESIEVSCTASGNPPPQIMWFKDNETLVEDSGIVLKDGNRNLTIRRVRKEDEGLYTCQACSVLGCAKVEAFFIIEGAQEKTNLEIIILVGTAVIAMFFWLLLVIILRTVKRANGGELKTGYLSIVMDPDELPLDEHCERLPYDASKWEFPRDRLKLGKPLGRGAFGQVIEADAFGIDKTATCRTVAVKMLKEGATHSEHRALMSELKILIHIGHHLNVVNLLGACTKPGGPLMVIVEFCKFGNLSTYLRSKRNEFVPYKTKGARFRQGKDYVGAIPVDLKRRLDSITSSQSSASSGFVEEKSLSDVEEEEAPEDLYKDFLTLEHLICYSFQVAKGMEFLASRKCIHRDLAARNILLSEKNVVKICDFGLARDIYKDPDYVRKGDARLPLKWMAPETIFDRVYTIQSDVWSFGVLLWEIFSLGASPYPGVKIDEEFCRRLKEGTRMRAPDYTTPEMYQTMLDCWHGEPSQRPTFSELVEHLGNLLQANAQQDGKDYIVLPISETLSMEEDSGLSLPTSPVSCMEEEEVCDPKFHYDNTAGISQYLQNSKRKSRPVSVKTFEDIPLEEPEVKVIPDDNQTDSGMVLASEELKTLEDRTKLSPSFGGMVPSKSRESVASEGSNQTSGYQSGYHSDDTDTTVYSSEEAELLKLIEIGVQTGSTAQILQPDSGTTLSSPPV
result type: IC50 (nM)
Give bare numbers, in nM.

For this molecule ( Cc1nc2ccccc2n(CC(=O)Nc2ccc(C(=O)Nc3cccc(Cl)c3)cc2)c1=O ), measured IC50 is 2.7

---

protocol summary: Antiproliferative activity against OSCC (unknown origin)
Assay type: functional, cell-based
test settings: Oral cancer cell
result type: IC50 (µM)
One number for each entry, in µM.

For this molecule ( COc1ccc(OC)c(C(=O)/C=C/c2ccc3nccnc3c2)c1 ), measured IC50 is 7.81

---

protocol summary: Cytotoxicity against normal epithelial cells (unknown origin) incubated for 24 hrs by Alamar blue assay
Type: toxicity, cell-based, Epithelial cell
result type: IC50 at 24 h (µM)
One number for each entry, in µM.

[[record]]
structure_as_smiles = "O=[N+]([O-])c1ccc2ncc(-c3cnc4ncccn34)nc2c1"
endpoint_value = 18.3


Hey, can you go through the list below and give me IC50 at 24 h for every item?
1. Clc1cc2ncc(-c3cnc4ccccn34)nc2cc1Cl
2. Clc1cc2ncc(-c3cnc4ncccn34)nc2cc1Cl

Response given:
23.9
15.8

Hey, can you go through the list below and give me IC50 at 24 h for every item?
1. Brc1ccc2ncc(-c3cnc4ccccn34)nc2c1
2. Clc1ccccc1-c1ccn2c(-c3cnc4ccccc4n3)cnc2n1
3. Brc1ccc2ncc(-c3cnc4ncccn34)nc2c1
4. Clc1ccc2ncc(-c3cnc4ccccn34)nc2c1
5. O=C(c1ccccc1)c1ccc2ncc(-c3cnc4ncccn34)nc2c1

Response given:
1. 20.9
2. 133
3. 15.2
4. 19.2
5. 16.7

Hey, can you go through the list below and give me IC50 at 24 h for every item?
1. Cc1ccc2ncc(-c3cnc4ccccn34)nc2c1
2. O=[N+]([O-])c1ccc2ncc(-c3cnc4ccccn34)nc2c1
3. c1ccc(-c2ccn3c(-c4cnc5ccccc5n4)cnc3n2)cc1
4. O=C(c1ccccc1)c1ccc2ncc(-c3cnc4ccccn34)nc2c1

Response given:
[22.5, 20.8, 47.5, 24.9]

---

target: Pyruvate kinase PKM (Homo sapiens)
Sequence (P14618 whole entry): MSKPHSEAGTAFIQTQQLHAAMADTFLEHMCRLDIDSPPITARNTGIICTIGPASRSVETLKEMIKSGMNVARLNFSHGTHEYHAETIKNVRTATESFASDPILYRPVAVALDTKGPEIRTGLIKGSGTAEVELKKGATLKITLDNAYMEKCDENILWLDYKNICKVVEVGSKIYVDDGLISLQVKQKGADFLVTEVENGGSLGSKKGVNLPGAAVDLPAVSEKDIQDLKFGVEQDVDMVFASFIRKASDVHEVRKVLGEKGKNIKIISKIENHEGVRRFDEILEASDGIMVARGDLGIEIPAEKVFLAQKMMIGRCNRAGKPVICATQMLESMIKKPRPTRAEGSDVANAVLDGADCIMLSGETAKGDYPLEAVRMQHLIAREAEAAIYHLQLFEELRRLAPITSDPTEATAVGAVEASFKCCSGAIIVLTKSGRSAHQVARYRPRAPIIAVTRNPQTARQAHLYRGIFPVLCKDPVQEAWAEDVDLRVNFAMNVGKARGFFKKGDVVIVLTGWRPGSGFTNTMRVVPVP
protocol summary: Activation of PKM2 (unknown origin) by LDH enzyme coupled assay
result type: EC50
Please append the unit to your numeric answer.

For this compound ( O=S(=O)(c1ccc2c(c1)OCCO2)N1CCN(S(=O)(=O)c2c(F)cccc2F)CC1 ), measured EC50 is 241 nM
